# ASSAY SYSTEM: Cytochrome P450 2C9 (Homo sapiens, UniProt P11712); note: in other assays of this panel Not Active means under 50% inhibition at 10 µM
# Sequence (P11712 whole entry): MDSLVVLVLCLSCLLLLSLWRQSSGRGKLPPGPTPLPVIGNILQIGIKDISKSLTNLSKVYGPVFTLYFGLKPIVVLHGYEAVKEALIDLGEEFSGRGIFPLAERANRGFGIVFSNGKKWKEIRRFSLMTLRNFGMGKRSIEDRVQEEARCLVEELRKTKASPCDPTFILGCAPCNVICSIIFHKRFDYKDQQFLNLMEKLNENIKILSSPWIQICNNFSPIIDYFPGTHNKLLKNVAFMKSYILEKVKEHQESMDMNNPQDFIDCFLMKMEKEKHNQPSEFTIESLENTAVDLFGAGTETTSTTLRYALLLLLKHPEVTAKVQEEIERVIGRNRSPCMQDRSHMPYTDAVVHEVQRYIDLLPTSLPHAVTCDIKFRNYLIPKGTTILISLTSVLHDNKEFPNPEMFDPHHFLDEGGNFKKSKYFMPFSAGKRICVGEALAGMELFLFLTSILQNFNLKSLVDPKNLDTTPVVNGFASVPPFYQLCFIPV
# CONDITION SET: bti-tn-5b1-4
ENDPOINT NAME: IC50

{"MOLECULE": "CN(C)CCC=C1c2ccccc2CCc2ccccc21", "RESULT": "Not Active"}
{"MOLECULE": "C[C@H]1[C@H](NC(=O)/C(=N\\OC(C)(C)C(=O)O)c2csc(N)n2)C(=O)N1S(=O)(=O)O", "RESULT": "Not Active"}
{"MOLECULE": "ClC(Cl)(Cl)Cl [CARBON TETRACHLORIDE]", "RESULT": "Not Active"}
{"MOLECULE": "CN1[C@@H]2CC[C@H]1C[C@@H](OC(c1ccccc1)c1ccccc1)C2", "RESULT": "Not Active"}
{"MOLECULE": "C[C@H]1COc2c(N3CCN(C)CC3)c(F)cc3c(=O)c(C(=O)O)cn1c23.C[C@H]1COc2c(N3CCN(C)CC3)c(F)cc3c(=O)c(C(=O)O)cn1c23.O", "RESULT": "Not Active"}
{"MOLECULE": "CCCCCCCCNC(C)C(O)c1ccc(SC(C)C)cc1 (centres undefined)", "RESULT": "Not Active"}
{"MOLECULE": "CN1C(=O)CN=C(c2ccccc2)c2cc([N+](=O)[O-])ccc21", "RESULT": "Not Active"}
{"MOLECULE": "CCOC(=O)c1ncn2c1CN(C)C(=O)c1cc(F)ccc1-2", "RESULT": "Not Active"}
{"MOLECULE": "CCN(C(C)=O)c1cccc(-c2ccnc3c(C#N)cnn23)c1", "RESULT": "Not Active"}
{"MOLECULE": "COc1ccccc1N", "RESULT": "Not Active"}
{"MOLECULE": "Cn1c(=O)c2c(ncn2C)n(C)c1=O", "RESULT": "Not Active"}
{"MOLECULE": "O=C(O)c1ccccc1O", "RESULT": "Not Active"}
{"MOLECULE": "CN1CCN(C2=Nc3cc(Cl)ccc3Nc3ccccc32)CC1", "RESULT": "Not Active"}
{"MOLECULE": "C[S+](C)[O-] [DIMETHYL SULFOXIDE]", "RESULT": "Not Active"}
{"MOLECULE": "CC1=NN(c2ccccc2)C(=O)C1", "RESULT": "Not Active"}
{"MOLECULE": "CO/N=C(\\C(=O)N[C@@H]1C(=O)N2C(C(=O)O)=C(COC(C)=O)CS[C@H]12)c1csc(N)n1", "RESULT": "Not Active"}
{"MOLECULE": "CCCCC(=O)N(Cc1ccc(-c2ccccc2-c2nnn[nH]2)cc1)[C@H](C(=O)O)C(C)C", "RESULT": "Not Active"}
{"MOLECULE": "O=C(O)P(=O)(O)O", "RESULT": "Not Active"}
{"MOLECULE": "CC(=O)OCC(COC(C)=O)OC(C)=O", "RESULT": "Not Active"}
{"MOLECULE": "C#C[C@]1(O)CC[C@H]2[C@@H]3CCC4=CC(=O)CC[C@]4(C)[C@H]3CC[C@@]21C", "RESULT": "Not Active"}
{"MOLECULE": "CN(C)C(=O)Oc1cccc([N+](C)(C)C)c1.[Br-] [NEOSTIGMINE BROMIDE]", "RESULT": "Not Active"}
{"MOLECULE": "CNC1=Nc2ccc(Cl)cc2C(c2ccccc2)=[N+]([O-])C1 [CHLORDIAZEPOXIDE]", "RESULT": "Not Active"}
{"MOLECULE": "CC(=O)Oc1ccccc1C(=O)O", "RESULT": "Not Active"}
{"MOLECULE": "Cc1cc(O)cc(C)c1Cl", "RESULT": "Not Active"}
{"MOLECULE": "NC(=O)c1cccc(N)c1 [3-AMINOBENZAMIDE]", "RESULT": "Not Active"}
{"MOLECULE": "OCCOCCN1CCN(C2=Nc3ccccc3Sc3ccccc32)CC1", "RESULT": "Not Active"}
{"MOLECULE": "C[C@@](Cc1ccc(O)c(O)c1)(NN)C(=O)O.O", "RESULT": "Not Active"}
{"MOLECULE": "CN1CCN(c2c(F)cc3c(=O)c(C(=O)O)cn(CCF)c3c2F)CC1", "RESULT": "Not Active"}
{"MOLECULE": "Cc1ccc(C)c(OCCCC(C)(C)C(=O)O)c1", "RESULT": "Not Active"}
{"MOLECULE": "NC(=O)c1cccnc1 [NIACINAMIDE]", "RESULT": "Not Active"}
{"MOLECULE": "O=c1[nH]c(=O)n([C@H]2C[C@H](O)[C@@H](CO)O2)cc1F", "RESULT": "Not Active"}
{"MOLECULE": "CC(C)NC[C@H](O)COc1cccc2ccccc12", "RESULT": "Not Active"}
{"MOLECULE": "Cc1ccc(C(=O)c2ccc(CC(=O)O)n2C)cc1", "RESULT": "Not Active"}
{"MOLECULE": "CCN(CC)CCNC(=O)c1ccc(N)cc1 [PROCAINAMIDE]", "RESULT": "Not Active"}
{"MOLECULE": "O=C(O)CCNC(=O)c1ccc(/N=N/c2ccc(O)c(C(=O)O)c2)cc1 [BALSALAZIDE]", "RESULT": "Not Active"}
{"MOLECULE": "COC(=O)[C@H]1[C@H]2C[C@@H]3c4[nH]c5cc(OC)ccc5c4CCN3C[C@H]2C[C@@H](OC(=O)c2cc(OC)c(OC)c(OC)c2)[C@@H]1OC", "RESULT": "Not Active"}
{"MOLECULE": "CC(=N)S [THIOACETAMIDE]", "RESULT": "Not Active"}
{"MOLECULE": "O=c1[nH]c(=O)n(C2CCCO2)cc1F (centres undefined)", "RESULT": "Not Active"}
{"MOLECULE": "C[C@]12CC[C@H]3[C@@H](CCC4=CC(=O)CC[C@@H]43)[C@@H]1CC[C@@H]2O", "RESULT": "Not Active"}
